These entries and their values trace back to patent US20240174641A1.

What pEC50 was measured for each of the following?
- system: STING (Canis lupus familiaris)
- Sequence (A0A8I3MH52 1-374): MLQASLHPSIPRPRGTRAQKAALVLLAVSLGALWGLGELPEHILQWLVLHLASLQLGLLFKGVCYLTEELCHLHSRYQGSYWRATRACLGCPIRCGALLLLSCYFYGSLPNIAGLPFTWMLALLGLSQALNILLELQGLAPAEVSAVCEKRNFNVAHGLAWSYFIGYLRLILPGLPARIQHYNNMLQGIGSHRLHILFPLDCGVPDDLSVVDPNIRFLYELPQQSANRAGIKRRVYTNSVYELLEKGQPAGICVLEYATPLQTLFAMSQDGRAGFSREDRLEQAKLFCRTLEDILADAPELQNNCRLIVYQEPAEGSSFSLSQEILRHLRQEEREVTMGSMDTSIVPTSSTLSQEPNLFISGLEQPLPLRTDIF
- measurementNotes: Dog whole blood (dWB) assay, IFNb secretion by ELISA
- testContext: canine Interferon-beta (IFNb) ELISA, 4 h incubation at 37° C.
One number for each entry, as −log10 of the molar value.

Solved cases below.
Qu. Name the recorded pEC50 of the item CC(=O)N1CCN(c2ccc(-n3nc(-c4cccc5nn(C)c(F)c45)c4cc(F)cc(C)c43)cn2)CC1 in your answer.
Ans. 6.68

Qu. Please indicate pEC50 recorded for Cc1c(F)ccc2c(-c3c(F)cc(F)c4nn(C)cc34)nn(-c3ccc(N4CCC(C(=O)O)CC4)nc3)c12
Ans. 6.53

Qu. State, in one line, measured pEC50 of Cc1cccc2c(-c3cccc4nn(C)c(F)c34)nn(-c3ccc(N4CCC(C(=O)O)CC4)nc3)c12
Ans. 6.63

New cases:
Qu. Report pEC50, nothing else, for this compound: CC(=O)N1CCN(c2ccc(-n3nc(-c4c(Cl)ccc5nn(C)cc45)c4cccc(C)c43)cn2)CC1
Ans. 6.09

====

- Test system: dog STING (dSTING)
- measurementNotes: Dog differential scanning fluorimetry (DSF) assay, thermal shift of dog STING protein
- Type: binding
- testContext: DSF (dDSF); 100 μM compound, 3 μM dog STING protein; Tm with ligand minus Tm of protein alone
- Procedure: The protein used for the biophysical experiments was a recombinant dog STING protein comprising its cytosolic cGAMP binding ectodomain. […] Dye fluorescence is quenched in aqueous environment and increases upon association of the dye with the hydrophobic parts of the unfolding protein. […] The inflection point of the curve represents the “melting” temperature of the protein (Tm) which is calculated numerically using the Boltzmann equation. […]
assayReadout: Delta TM (°C)
Give bare numbers, in °C.

Please review the following examples before continuing.
Qu. Given Cc1cccc2c(-c3ccc(F)c4nn(C)cc34)nn(-c3ccc(N4CCC(C(=O)O)CC4)nc3)c12 , respond with its Delta TM.
Ans. 31.0

Qu. Return value of Delta TM for input CC(=O)N1CCN(c2ccc(-n3nc(-c4c(F)cc(F)c5nn(C)cc45)c4cccc(C)c43)cn2)CC1 , no commentary.
Ans. 30.5

Qu. Entry CC(=O)N1CCN(c2ccc(-n3nc(-c4c(Cl)ccc5nn(C)cc45)c4cccc(C)c43)cn2)CC1 needs its Delta TM filled in; supply it.
Ans. 18.4

Qu. Indicate the recorded Delta TM value for this molecule: CC(=O)N1CC2CCC1CN2c1ccc(-n2nc(-c3c(F)ccc4nn(C)cc34)c3cccc(C)c32)cn1 (stereo not drawn)
Ans. 31.0

Qu. Provide one value: measured Delta TM of Cc1cccc2c(-c3cccc4nn(C)c(F)c34)nn(-c3ccc(N4CC[C@H](CC(=O)O)C4)nc3)c12
Ans. 35.8

Each of the following entries comes with a recorded value; kindly state Delta TM for each.
1. Cc1c(F)ccc2c(-c3c(F)ccc4nn(C)cc34)nn(-c3ccc(N4C[C@@H]5[C@H](C4)[C@H]5C(=O)O)nc3)c12
2. CC(=O)N1CC2CCC1CN2c1ccc(-n2nc(-c3cc(F)cc4nn(C)cc34)c3cccc(C)c32)cn1 (stereo not drawn)
3. CC(=O)N1CC2CCC1CN2c1ccc(-n2nc(-c3c(F)cc(F)c4nn(C)cc34)c3cccc(C)c32)cn1 (stereo not drawn)
4. CC(=O)N1C[C@@H]2C[C@H]1CN2c1ccc(-n2nc(-c3cc(F)cc4nn(C)cc34)c3cccc(C)c32)cn1

Ans.
[36.5, 16.0, 25.8, 16.0]
